Subject Of Test: gelatinase-A (MMP-2) (Homo sapiens, UniProt P08253)
Construct: Recombinant active gelatinase-A (MMP-2) is purchased from Oncogene Research
Sequence (P08253 110-660): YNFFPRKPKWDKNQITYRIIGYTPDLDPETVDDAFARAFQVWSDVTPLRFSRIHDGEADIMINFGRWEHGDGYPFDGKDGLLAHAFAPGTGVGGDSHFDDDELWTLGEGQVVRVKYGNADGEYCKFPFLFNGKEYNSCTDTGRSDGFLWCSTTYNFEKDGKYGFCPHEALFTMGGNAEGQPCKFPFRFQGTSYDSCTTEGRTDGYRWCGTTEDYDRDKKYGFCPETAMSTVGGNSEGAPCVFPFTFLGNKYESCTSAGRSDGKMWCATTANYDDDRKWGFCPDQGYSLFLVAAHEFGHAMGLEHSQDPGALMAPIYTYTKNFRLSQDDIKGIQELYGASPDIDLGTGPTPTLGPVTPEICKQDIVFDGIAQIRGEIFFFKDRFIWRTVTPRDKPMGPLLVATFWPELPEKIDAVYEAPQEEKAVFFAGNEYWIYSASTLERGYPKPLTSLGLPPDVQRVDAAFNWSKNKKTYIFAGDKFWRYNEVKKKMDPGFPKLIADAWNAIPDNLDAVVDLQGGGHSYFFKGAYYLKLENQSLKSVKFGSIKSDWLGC
Assay Comment: Inhibition of Gelatinase A (MMP-2), cleavage of a fluorescent substrate
Applied Conditions: Table 2; recombinant active gelatinase-A (MMP-2), pH 7.4, 40 min assay at ambient temperature
# maps each entry to its pIC50
# pIC50: negative log10 of molar concentration; output just the value

These recorded examples may help you get a feel for the data.
>>> print(df.to_string())
                                   compound  result_type  result_number
0  O=CN(O)CC1(CS(=O)(=O)c2ccc(Oc3ccc(OC(F)(F)F)cc3)cc2)COCOC1 [Example 135]        pIC50           9.22
1  CN1C(=O)N(C[C@@H](CCS(=O)(=O)c2ccc(Oc3ccc(F)cc3)cc2)N(O)C=O)C(=O)C1(C)C [Example 132]        pIC50           7.82
2  CC1(C)NC(=O)N(C[C@@H](CCS(=O)(=O)c2ccc(Oc3ccc(Cl)cc3)cc2)N(O)C=O)C1=O [Example 130]        pIC50           7.92

Reported pIC50 for CC(C)(CN(O)C=O)CS(=O)(=O)c1ccc(Oc2ccc(OC(F)(F)F)cc2)cc1 [Example 131] : what is it?
8.31

Reported pIC50 for O=CN(O)C1CCCCC1CS(=O)(=O)c1ccc(Oc2ccc(F)cc2)cc1 (racemic) [Example 134] : what is it?
6.92

Reported pIC50 for CC(C)(CN(O)C=O)CS(=O)(=O)c1ccc(Oc2ccccc2)cc1 [Example 129] : what is it?
8.37
